Tested on: NF-κ B
Test: Inhibitory activity of NF-κ B activation, luciferase reporter assay in HepG2 under TNF-α stimulation
Assay type: cell-based, human
Settings: 10 μg/mL; HepG2, TNF-α (40 ng/ml), 4 hours
Method: Using a transfection reagent(Effectene; QIAGEN), the human hepatoma cell strain HepG2 was transfected with a plasmid(pNF κ B-Luc Reporter Plasmid; […]) which is integrated with an oligonucleotide having five tandem copies of NF-κ B binding sequences([…]) on a upstream region of firefly luciferase gene(Luc) according to the QIAGEN's protocol, and the cells were incubated for 6 to 24 hours. […]
Each item that follows carries a reported Inhibitory Ratio of NF-κ B Activation(%) Drug Concentration 10 μg/mL.
measured endpoint: Inhibitory Ratio of NF-κ B Activation(%) Drug Concentration 10 μg/mL

[
  {
    "compound": "O=C(Nc1cc(C(F)(F)F)cc(C(F)(F)F)c1)c1ccc(F)cc1O [Compound No. 250]",
    "unit name": "%",
    "reading": 95.4
  },
  {
    "compound": "O=C(Nc1nc(-c2ccccc2)c(C(=O)NCCc2ccccc2)s1)c1cc(Br)ccc1O [Compound No. 223]",
    "unit name": "%",
    "reading": 60.4
  },
  {
    "compound": "O=C(Nc1cc(C(F)(F)F)cc(C(F)(F)F)c1)c1cc(-c2ccsc2)ccc1O [Compound No. 29]",
    "unit name": "%",
    "reading": 92.9
  },
  {
    "compound": "COc1cccc(C(=O)Nc2cc(C(F)(F)F)cc(C(F)(F)F)c2)c1O [Compound No. 59]",
    "unit name": "%",
    "reading": 94.7
  },
  {
    "compound": "O=C(Nc1cc(C(F)(F)F)cc(C(F)(F)F)c1)c1ccccc1O [compound 2]",
    "unit name": "%",
    "reading": 95.6
  },
  {
    "compound": "COc1cc(NC(=O)c2cc(Cl)ccc2O)cc(C(F)(F)F)c1 [Compound No. 105]",
    "unit name": "%",
    "reading": 97.5
  },
  {
    "compound": "O=C(Nc1cc(C(F)(F)F)cc(C(F)(F)F)c1)c1cc(Cl)cnc1O [Compound No. 75]",
    "unit name": "%",
    "reading": 82.2
  },
  {
    "compound": "O=C(Nc1cc(C(F)(F)F)ccc1N1CCCC1)c1cc(Br)ccc1O [Compound No. 97]",
    "unit name": "%",
    "reading": 97.8
  },
  {
    "compound": "O=C(Nc1cc(C(F)(F)F)ccc1Oc1ccc(Cl)cc1Cl)c1cc(Cl)ccc1O [Compound No. 111]",
    "unit name": "%",
    "reading": 99.7
  },
  {
    "compound": "CC(C)(C)C(=O)c1sc(NC(=O)c2cc(Br)ccc2O)nc1C(C)(C)C [Compound No. 201]",
    "unit name": "%",
    "reading": 97.5
  },
  {
    "compound": "O=C(Nc1cc(C(F)(F)F)ccc1Br)c1cc(Cl)ccc1O [Compound No. 107]",
    "unit name": "%",
    "reading": 96.2
  },
  {
    "compound": "CCCCc1ccc([N+](=O)[O-])cc1NC(=O)c1cc(Cl)ccc1O [Compound No. 176]",
    "unit name": "%",
    "reading": 99.5
  },
  {
    "compound": "COC(=O)C(C#N)=Cc1ccc(O)c(C(=O)Nc2cc(C(F)(F)F)cc(C(F)(F)F)c2)c1 [Compound No. 17]",
    "unit name": "%",
    "reading": 99.1
  },
  {
    "compound": "O=C(Nc1cc(Cl)ccc1Cl)c1cc(Cl)ccc1O [Compound No. 122]",
    "unit name": "%",
    "reading": 96.9
  },
  {
    "compound": "CCCCOc1ccc(OCCCC)c(NC(=O)c2cc(Cl)ccc2O)c1 [Compound No. 161]",
    "unit name": "%",
    "reading": 97.6
  },
  {
    "compound": "Cc1ccc(O)c(C(=O)Nc2cc(C(F)(F)F)cc(C(F)(F)F)c2)c1 [compound 10]",
    "unit name": "%",
    "reading": 99.4
  },
  {
    "compound": "CCCCCCOc1ccc(S(C)(=O)=O)cc1NC(=O)c1cc(Cl)ccc1O [Compound No. 165]",
    "unit name": "%",
    "reading": 99.4
  }
]
